Biological target: recombinant PRL-3 (Homo sapiens)
Construct: 6xHis (N, cleaved yes); made in house; host or cells: E. coli One Shot BL21 Star
Sequence (O75365 whole entry): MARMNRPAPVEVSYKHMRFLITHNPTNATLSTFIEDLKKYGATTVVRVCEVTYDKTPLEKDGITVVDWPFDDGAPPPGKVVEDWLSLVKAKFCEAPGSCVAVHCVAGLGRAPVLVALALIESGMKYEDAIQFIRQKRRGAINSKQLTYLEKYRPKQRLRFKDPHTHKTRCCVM
Assay: In vitro phosphatase assay (DiFMUP hydrolysis), PRL-3; note: test concentration or dose not given here
Assay type: biochemical
Conditions: FDA-approved drug screen; compared to DMSO
Structures can show the parent of a compound that is named as a salt.
assayReadout: % Phosphatase Activity (compared to DMSO) PRL-3 (%)

>  <compound>
NC[C@@H]1O[C@H](O[C@H]2[C@@H](O)[C@H](O[C@@H]3[C@@H](O)[C@H](N)C[C@H](N)[C@H]3O[C@H]3O[C@H](CN)[C@@H](O)[C@H](O)[C@H]3N)O[C@@H]2CO)[C@H](N)[C@@H](O)[C@@H]1O.O=S(=O)(O)O [Neomycin sulfate]

>  <subjectOfTest>
recombinant PRL-3 (Homo sapiens)

>  <numericResult>
86

$$$$
>  <compound>
C[C@@H]1O[C@@H]1P(=O)(O)O.NC(CO)(CO)CO

>  <subjectOfTest>
recombinant PRL-3 (Homo sapiens)

>  <numericResult>
92

$$$$
>  <compound>
COCCc1ccc(OCC(O)CNC(C)C)cc1 (stereo not shown) [Metoprolol Tartrate]

>  <subjectOfTest>
recombinant PRL-3 (Homo sapiens)

>  <numericResult>
98

$$$$
>  <compound>
COc1cc(OC)c(/C=C/S(=O)(=O)Cc2ccc(OC)c(NCC(=O)O)c2)c(OC)c1

>  <subjectOfTest>
recombinant PRL-3 (Homo sapiens)

>  <numericResult>
78

$$$$

Values compiled from paper PMC8119466.
